Target: T1, 4H63-AA
T1 chain: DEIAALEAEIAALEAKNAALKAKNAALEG
Test: two-hybrid library CCmax;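 further: natural log of median RNA to DNA barcode read ratio; higher means stronger binding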
measured-attribute: interaction score

>>> observed_result("DKNAALEAKIAALKAKNAALKAEIAALEG [4H3449-AA]")
-1.51

I = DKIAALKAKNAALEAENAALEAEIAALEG [4H2961-AA]
II = DEIAALEAEIAALEAKNAALKAKNAALEG [4H63-AA]
Recorded interaction score values differ for I and II ; which one is higher? Answer by stating the label of the chosen item.
I
